Where these numbers come from: patent US20090169562A1

# testedTarget: T1, bovine serum albumin (BSA) (bovine, UniProt P02769 25-607)
# T1 construct: Control antigen coated at 1% in PBS (pH 7.4); also called negative control antigen
# T1 sequence (P02769 25-607 limits assumed): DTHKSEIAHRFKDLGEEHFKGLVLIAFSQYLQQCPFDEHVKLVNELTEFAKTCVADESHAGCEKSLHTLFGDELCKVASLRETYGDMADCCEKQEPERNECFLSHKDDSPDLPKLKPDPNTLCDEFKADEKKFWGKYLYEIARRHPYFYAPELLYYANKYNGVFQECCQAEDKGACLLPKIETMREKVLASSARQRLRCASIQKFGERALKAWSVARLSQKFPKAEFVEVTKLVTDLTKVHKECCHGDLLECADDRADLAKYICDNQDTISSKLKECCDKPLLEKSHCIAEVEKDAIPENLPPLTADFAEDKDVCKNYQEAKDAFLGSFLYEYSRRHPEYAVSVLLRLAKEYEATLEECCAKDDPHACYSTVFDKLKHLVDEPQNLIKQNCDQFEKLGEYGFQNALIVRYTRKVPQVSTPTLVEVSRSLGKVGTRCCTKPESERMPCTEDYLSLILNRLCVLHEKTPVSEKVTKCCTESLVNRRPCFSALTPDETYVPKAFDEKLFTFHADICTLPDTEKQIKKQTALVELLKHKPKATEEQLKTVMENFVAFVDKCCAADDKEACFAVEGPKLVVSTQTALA
# procedureSummary: phage ELISA, 1% BSA coated, anti-M13-HRP detection
For each of the binders below, state its OD492 nm.
Report only the number, with the unit OD492 nm understood.

// recorded OD492 nm for SC06-078 (scFv, Vl 136-245); also called single-chain phage antibody SC06-078) scFv: EVQLVESGAEVKKPGSSVKVSCKASGGTFSSYAISWVRQAPGQGLEWMGGIIPIFGTANYAQKFQGKVTITADESTSTAYMELSSLRSEDTAVYYCARLSPRYYGMDVWGQGTTVTVSSGTGGSGGTGSGTGGSTQSALTQPRSVSGSPGQSVTISCTGTSSDVGGYNYVSWYQQHPGKAPKLMIYGGSERPSGVSNRFSGSKSGNTASLTISGVQAEDEADYYCSSYTSSGTLLFGGGTQLTVL : 0.073

// recorded OD492 nm for SC05-159 (scFv, Vl 140-249); also called single-chain phage antibody SC05-159) scFv: QVQLVQSGAEVKKPGATVKISCKVSGYTFTDYYMHWVQQAPGKGLEWMGLVDPEDGETIYAEKFQGRVTITADTSTDTAYMELSSLRSDDTAVYYCARAEVMTTINNWYFDLWGRGTLVTVSSGTGGSGGTGSGTGGSTSYVLTQPPSASGTPGQRVTISCSGSSSNIGSNNVSWYQQLPGTAPKLLIYSNNQRPSGVPDRFSGSKSGTSASLAISGLQSEDEADYYCAAWDDSLNGWVFGGGTKLTVL : 0.06
